- System: VchCAST RNA-guided transposition machinery (E. coli BL21(DE3) host, lacZ target)
- Test: relative integration efficiency (T-LR orientation) vs wild-type transposon end (log2 (normalized fold change)); transposon end mutated: right end (5 bp flank + 75 bp right end); higher = more efficient transposition
Value type: relative integration efficiency (log2)
Respond with the number and no other words.

State, in one line, measured relative integration efficiency (log2) of ACATTTGTTGATACAACCATAAAATGATAATTCACAAACGCCCGGTCGCCGGCGACACAAACGCCCGGTCGCGGTAAGAGGATCATAGTCAGACCAACATTGCTACGACCCGTATTCGCACCGACAC
1.4

State, in one line, measured relative integration efficiency (log2) of ACATTTGTTGATACAACCATAAAATGATAATTACACCCATAAATTTATTATTATCACACCCAATTTAACTATAACGCTCTGATCATAGTCAGACCAACATTGCTACGACCCGTATTCGCACCGACAC
1.56

State, in one line, measured relative integration efficiency (log2) of ACATTTGTTGATACACCCATAAATTGATATTGCCAACCATAAGTTGATATTTTTCACAACCATAAGTTGATATTTTCTCTGATCATAGTCAGACCAACATTGCTACGACCCGTATTCGCACCGACAC
-0.197

State, in one line, measured relative integration efficiency (log2) of ACATTTGTTGATACAACCATATTATGATAATTACACCCATATTTTGATAATTATCACACCCATATTTTGATATTGCCTCTGATCATAGTCAGACCAACATTGCTACGACCCGTATTCGCACCGACAC
-0.471

State, in one line, measured relative integration efficiency (log2) of ACATTTGTTGATACAACCATAAAATGATAATTACTCTGATCATAGTCAGACCAACATTGCTACGACCCCACCCATAAATTGATAATTATCAGTGGGTATTTAACTATAACGGTATTCGCACCGACAC
-0.154

----------
- Test system: VchCAST RNA-guided transposition machinery (E. coli BL21(DE3) host, lacZ target)
- Test: relative integration efficiency (T-RL orientation) vs wild-type transposon end (log2 (normalized fold change)); transposon end mutated: right end (5 bp flank + 75 bp right end); higher = more efficient transposition
Value type: relative integration efficiency (log2)
Respond with the number and no other words.

State, in one line, measured relative integration efficiency (log2) of ACATTTGTTCATACAACCATAAAATGATAATTACCACCCATAAATTGATAATTATCACACCCATTTAACTATAACGCTCTGATCATAGTCAGACCAACATTGCTACGACCCGTATTCGCACCGACAC
-1.38

State, in one line, measured relative integration efficiency (log2) of ACATTTCTTCATACAACCATAAAATGATAATTACACCCATAAATTGATCATTATCACACCCAATTTAACTATAACGCTCTGATCATAGTCAGACCAACATTGCTACGACCCGTATTCGCACCGACAC
-4.44

State, in one line, measured relative integration efficiency (log2) of ACATTTGTTGATACAACCATAAAATCATCATTACACCCATCAATTGATAATTATCACACCCCATTTAACTATAACGCTCTGATCATAGTCAGACCAACATTGCTACGACCCGTATTCGCACCGACAC
-4.88

State, in one line, measured relative integration efficiency (log2) of ACATTTGTTGATACAACCATAAAATGATAATTACACCCATAAATACATAATTATCACACCCATAAATTGATATTGCCTCTGATCATAGTCAGACCAACATTGCTACGACCCGTATTCGCACCGACAC
-0.763

State, in one line, measured relative integration efficiency (log2) of ACATTTGTTGATACAACCATAAAATGATAATTAATAATTATTTATAATCAGCAACTTAACCACAAAACACCCATAAATTGATAATTAACACACCCATAAATTGATATTGCCTCTGATCATAGTCAGA
-5.33

Source listed as the supplement of paper PMC10201428.
